# test.details: Pharmacokinetic evaluation of QC-199 in mouse plasma and brain, IP or oral
# Format: in vivo
# settings: mouse, in vivo; brain, Oral 60 mg/kg, male CD-1 mice
measurement.label: Cmax (ng/g)

> print(dat)
                line.notation  unit  measured.result
1  Brc1ccc(CCCCn2ccnc2)cc1.Cl  ng/g            39000

###

# tested.system: HO-1 (rat spleen) (Rattus norvegicus, UniProt P06762)
# Construct: Spleen microsomes were used as a source of HO-1; from tissue; host or cells: spleen microsomal fraction of adult male Sprague-Dawley rats
# Sequence (P06762 1-289): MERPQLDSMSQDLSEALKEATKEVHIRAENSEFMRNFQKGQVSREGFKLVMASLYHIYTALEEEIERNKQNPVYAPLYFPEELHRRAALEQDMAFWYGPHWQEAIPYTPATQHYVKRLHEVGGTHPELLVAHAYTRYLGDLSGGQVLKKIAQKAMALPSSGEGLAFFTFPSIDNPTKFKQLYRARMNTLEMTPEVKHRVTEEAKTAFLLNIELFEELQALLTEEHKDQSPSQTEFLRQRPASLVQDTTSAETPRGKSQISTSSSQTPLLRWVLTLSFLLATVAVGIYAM
# test.details: HO enzymatic activity in rat spleen microsomal fraction (CO formed from methemalbumin, gas chromatography)
# Type: biochemical
# settings: rat spleen microsomes; average ± standard deviation of replicate experiments; read-out: IC50 HO-1 (rat spleen)/μM
Counter-ions that a name gives are not always drawn.
Measured IC50 values are reported for all entries that follow.
measurement.label: IC50 (µM)

> print(dat)
                                   compound                             tested.system  qualifier.symbol  measured.result
1  O=C(CCc1ccc(Br)cc1)Cn1ccnc1 [hydrochloride]  HO-1 (rat spleen) (Rattus norvegicus, UniProt P06762)                 =              1.7
2                 O=C(Cn1cnnc1)c1ccc(Cl)cc1  HO-1 (rat spleen) (Rattus norvegicus, UniProt P06762)                 >              100
3  COc1ccc(OCC2CO[C@@](CCc3ccc(Cl)cc3)(Cn3ccnc3)O2)cc1 (stereo in doubt) [hydrochloride]  HO-1 (rat spleen) (Rattus norvegicus, UniProt P06762)                 =             1.33
4                       Fc1ccc(-c2ccno2)cc1  HO-1 (rat spleen) (Rattus norvegicus, UniProt P06762)                 >              100
5  [O-][S+](CCCCn1ccnc1)c1ccccc1 (stereo not drawn) [hydrochloride]  HO-1 (rat spleen) (Rattus norvegicus, UniProt P06762)                 =             18.4
6  COc1ccc(CCN2CCC(Nc3nc4ccccc4n3Cc3ccccc3)CC2)cc1  HO-1 (rat spleen) (Rattus norvegicus, UniProt P06762)                 >              100

###

# tested.system: human HO-1 (hHO-1) in transfected astroglia (Homo sapiens)
# Construct: containing the entire protein-coding region (866 bp) of the human HO-1 gene
# Sequence (P09601 whole entry): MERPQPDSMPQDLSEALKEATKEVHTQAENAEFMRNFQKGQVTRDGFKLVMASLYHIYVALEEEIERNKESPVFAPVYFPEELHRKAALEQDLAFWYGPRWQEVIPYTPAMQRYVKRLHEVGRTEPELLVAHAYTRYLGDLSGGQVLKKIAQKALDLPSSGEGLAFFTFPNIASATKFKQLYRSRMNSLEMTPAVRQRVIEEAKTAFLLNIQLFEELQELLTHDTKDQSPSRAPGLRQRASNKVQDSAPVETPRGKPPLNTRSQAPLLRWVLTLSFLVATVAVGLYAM
# test.details: HO enzyme activity (bilirubin formation) in hHO-1-transfected astrocytes
# settings: concentration of QC-47 used on HO-1-transfected astroglia, stated as IC50
measurement.label: IC50

> print(dat)
                                   compound  measured.result
1  Cl.FC[C@@H]1CO[C@@](CCc2ccc(Cl)cc2)(Cn2ccnc2)O1 [QC-47, hydrochloride]           6.5 µM
